assay: yeast display, Sf9 membrane polyspecificity reagent, FACS + sequencing; frameworks hold sequencing errors
Endpoint: polyreactivity (PSR sort gate)

Some sequences with known polyreactivity (PSR sort gate) results, for comparison:
| Sequence Record | polyreactivity (PSR sort gate) |
| --- | --- |
| QVQLVESGGGLVQAGGSLRLICAASGLTFSGYVMAWYRQAPGKERELVAAISLSGGSTYYADSVKGRFTISRDNAKNTVYLQMNSLKPEDTAVYYCAASTRFYNSYRREYWGQGTQVTVSS | high polyreactivity |
| QVQLVESGGGLVQAGGSLRLSCAASGSTFTFYAMGWYRQAPGKERELVATISSSGGSTYYADSVKGRFTISRDNAKNTVYLQMNSLKPEDTAVYYCTATTAPRDGKWQGGMDYWGQGTQVTVSS | low polyreactivity |
| QVQLVESGGGLVQAGGSLRLSCAASGFIFDRNAMGWYRQAPGKERELVAAISKSGGSTYYADSVKGRFSISRDNAKNTVYLQMNSLKPEDTAVYYCAADRPTIRYNSWGQGTQVTVSS | high polyreactivity |
| QVQLVESGGGLVQAGGSLRLSCAASGRIFAVYAMGWYRQAAGKERELVAAITSTGSTNYADSVKGRFTISRDNAKNTVYLQMNSLKPEDTAVYYCAKRRHSSWLRYNYWGQGTQVTVSS | low polyreactivity |
| QVQLVESGGGLVQAGGSLRLSCAASGSTFYKYAMGWYRQAPGKERELVAAITGSGGGTYYADSVKGRFTISRDNGKNTVYLQMNCLKPEDTAVYYCAARRVRSREAYDYWGQGTQVTVSS | high polyreactivity |
| QVQLVESGGGLVQAGVSLRLSCAASGRTFEYNAMGWYRQAPGKERELVATIRYSGTSTYADSVKGRFTISRDNAKNTVYLQMNSLKPEDSAVYYFAKQVRYYGYKYNYWGLGTQVTVSS | high polyreactivity |
| QVQLVESGGRLVQAGGSLRLSCAASGSIFDNYVMGWYRQAPGKERELVAAINSSGGSTYYADSVKGRFTISRDNAKNTVYLQMNSLKPEDTAVYYCIATDGITPYDLTDIEFDYWGQGTQVTVSS | low polyreactivity |
| QVQLVDSGGGLVQAGGSLRLSCAASGSIFVNNTMGWYRQAPGKERELVAAISSSGGSTYYADSVKGRFTISRDNAKNTVYLQMNSLKPEDTAVYYCAAVNGYQYPQYYYNGYDYWGQGTQVTVSS | low polyreactivity |
| QVQLVESGGGLVQAGGSLRLSCAASGYSFYYYAMVWYRQAPGKERELVAAITSGDSTYADSVKGRFTISRDNAKNTVYLQMNSLKPEDTAVYYCNRDTDYGFDYWGQGTQVTVSS | low polyreactivity |
| QVQLVESGGGLVQAGGSLRLSCAASGRTFEHYAMGWYRQAPGKERELVAAINSSDGGTYYADSVKGRITISRDNPKNTVYLQMNSLKPEDTAVYYCAAAEFGSVPGYEMDYWGQGTQVTVSS | low polyreactivity |

Now let's try a different one.
Request: Data request, read-out polyreactivity (PSR sort gate), for QVQLVESGGGLVQAGGSLRLSCAASGITFTWYAMGWYRQAPGKERELVAAISGGGSTYYVDSVKGRFTISRDNAKNTVYLQMNSLKPEDTAVYYCAARYSWTRRTMYYWGQGTQVTVSS
Response: high polyreactivity
